readout: Ki (nM)
Just the number please, in nM, no unit attached.

Task item: Form field: Ki recorded for O=C(NCCCN1CCN(c2ccccc2C(F)(F)F)CC1)c1n[nH]c2ccccc12 [Compound 12] with human serotonin 5-HT2A receptor (Homo sapiens) (enter value)
Reply: 832

Task item: Missing value: Ki, human serotonin 5-HT2A receptor (Homo sapiens), entry O=C(NCCCN1CCN(c2ccccn2)CC1)c1n[nH]c2ccccc12 [Compound 5] . Fill in?
Reply: 132

Task item: Given the entry O=C(NCCCN1CCN(c2ccccc2Cl)CC1)c1n[nH]c2ccccc12 [Compound 13] , what Ki was observed with human serotonin 5-HT2A receptor (Homo sapiens)?
Reply: 134

Task item: Request: Ki, test system human serotonin 5-HT2A receptor (Homo sapiens), entry COc1ccccc1N1CCN(CCCNC(=O)c2n[nH]c3ccccc23)CC1 [Compound 2]
Reply: 372

Task item: human serotonin 5-HT2A receptor (Homo sapiens) / Ki / CSc1ccccc1N1CCN(CCCNC(=O)c2n[nH]c3ccccc23)CC1 [Compound 14] : value?
Reply: 217

---

- target_under_test: human serotonin 5-HT1A receptor (Homo sapiens, UniProt P08908)
- Construct: expressed in transfected cells; host or cells: HEK293
- Sequence (P08908 1-422): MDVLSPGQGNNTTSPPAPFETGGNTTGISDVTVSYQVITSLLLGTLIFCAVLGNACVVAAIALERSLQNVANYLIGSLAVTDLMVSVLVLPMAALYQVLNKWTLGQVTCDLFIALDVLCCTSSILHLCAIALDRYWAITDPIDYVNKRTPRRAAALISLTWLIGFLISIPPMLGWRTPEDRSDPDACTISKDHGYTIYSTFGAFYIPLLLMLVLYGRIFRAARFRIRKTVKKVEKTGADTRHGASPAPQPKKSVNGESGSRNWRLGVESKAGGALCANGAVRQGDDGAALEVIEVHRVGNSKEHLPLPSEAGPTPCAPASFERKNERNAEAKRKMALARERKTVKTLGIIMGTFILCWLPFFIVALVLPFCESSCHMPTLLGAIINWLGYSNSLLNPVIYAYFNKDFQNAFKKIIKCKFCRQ
- method_description: Competition radioligand binding, [3H]-8-OH-DPAT, HEK293 membranes
- assay_context: human cloned 5-HT1A; read-out: Ki 5-HT1A (converted)
readout: Ki (µM)
Write it as a number; the unit µM goes unstated.

Task item: What value of Ki has been reported for the following compound? O=C(NCCCN1CCN(c2ncccn2)CC1)c1n[nH]c2ccccc12
Reply: 0.238

Task item: Endpoint output: Ki of O=C(NCCCN1CCN(c2ccccc2C(F)(F)F)CC1)c1n[nH]c2ccccc12 . Value?
Reply: 0.423

Task item: Given COc1ccccc1N1CCN(CCCNC(=O)c2n[nH]c3ccccc23)CC1 , state its recorded Ki.
Reply: 0.0229

Task item: Can you share its Ki? I mean this compound: O=C(NCCCN1CCN(c2cccnc2)CC1)c1n[nH]c2ccccc12
Reply: 1.38

---

Ki tested on human 5-HT7 receptor (Homo sapiens, UniProt P34969): recorded values
Sequence (P34969 whole entry): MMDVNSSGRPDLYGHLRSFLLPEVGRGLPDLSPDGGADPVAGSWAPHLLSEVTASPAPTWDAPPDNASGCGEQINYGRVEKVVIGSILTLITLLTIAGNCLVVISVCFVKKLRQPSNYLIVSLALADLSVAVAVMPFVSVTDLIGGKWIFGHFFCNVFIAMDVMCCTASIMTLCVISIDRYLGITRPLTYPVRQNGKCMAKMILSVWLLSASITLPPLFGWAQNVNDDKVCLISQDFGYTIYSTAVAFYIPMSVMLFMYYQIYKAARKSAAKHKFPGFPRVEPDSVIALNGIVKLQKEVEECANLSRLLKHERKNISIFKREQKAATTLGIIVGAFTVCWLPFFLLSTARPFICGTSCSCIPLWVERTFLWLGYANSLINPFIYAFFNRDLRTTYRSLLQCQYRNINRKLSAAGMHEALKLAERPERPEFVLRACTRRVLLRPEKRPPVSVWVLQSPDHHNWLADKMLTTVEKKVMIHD
The answer consists of two parts: a number and, after it, its unit.

Task item: Given the compound O=C(NCCCN1CCN(c2ccccc2)CC1)c1n[nH]c2ccccc12 , what is its reported Ki?
Reply: 540 nM

Task item: What measured Ki goes with O=C(NCCCN1CCN(c2cccc(F)c2)CC1)c1n[nH]c2ccccc12 ?
Reply: 589 nM

Task item: Reported Ki, compound O=C(NCCCN1CCN(c2ccc(F)cc2)CC1)c1n[nH]c2ccccc12 : ____
Reply: 196 nM

---

Please provide measured Ki for the entries that follow.
- target_under_test: human dopamine D1 receptor (Homo sapiens, UniProt P21728)
- Sequence (P21728 whole entry): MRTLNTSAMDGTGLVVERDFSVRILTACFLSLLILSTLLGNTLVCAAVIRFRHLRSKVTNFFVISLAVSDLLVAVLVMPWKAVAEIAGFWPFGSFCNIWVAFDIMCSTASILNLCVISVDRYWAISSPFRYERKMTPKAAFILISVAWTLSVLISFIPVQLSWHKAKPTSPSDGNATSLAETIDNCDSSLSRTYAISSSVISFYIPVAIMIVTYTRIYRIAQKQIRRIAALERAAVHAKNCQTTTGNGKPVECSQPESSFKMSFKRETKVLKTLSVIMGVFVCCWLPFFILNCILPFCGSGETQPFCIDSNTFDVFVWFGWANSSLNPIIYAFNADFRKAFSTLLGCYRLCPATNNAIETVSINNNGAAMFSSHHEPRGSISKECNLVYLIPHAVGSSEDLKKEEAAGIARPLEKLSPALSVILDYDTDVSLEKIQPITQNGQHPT
- method_description: Competition radioligand binding, [3H]-SCH-23390, CHO-K1 membranes
Express your answer as a number followed by its unit.

Task item: Which measured Ki belongs to O=C(NCCCN1CCN(c2ccccc2)CC1)c1n[nH]c2ccccc12 , tested on human dopamine D1 receptor (Homo sapiens, UniProt P21728)?
Reply: 241 nM

Task item: Kindly state the measured Ki obtained for O=C(NCCCN1CCN(c2cccc(F)c2)CC1)c1n[nH]c2ccccc12 with human dopamine D1 receptor (Homo sapiens, UniProt P21728).
Reply: 181 nM

---

Please provide measured Ki for the entries that follow.
Form entry: value (µM) — number only.

Task item: Requested read-out Ki, target or system human serotonin 5-HT2A receptor (Homo sapiens), entry COc1cccc(N2CCN(CCCNC(=O)c3n[nH]c4ccccc34)CC2)c1
Reply: 0.184

Task item: Identify the measured Ki of CCOc1ccccc1N1CCN(CCCNC(=O)c2n[nH]c3ccccc23)CC1 for human serotonin 5-HT2A receptor (Homo sapiens).
Reply: 0.28

Task item: Lab request: please report Ki under test system human serotonin 5-HT2A receptor (Homo sapiens) for O=C(NCCCN1CCN(c2ccccc2)CC1)c1n[nH]c2ccccc12
Reply: 0.0356

Task item: State its Ki on human serotonin 5-HT2A receptor (Homo sapiens): O=C(NCCCN1CCN(c2ccc(F)cc2)CC1)c1n[nH]c2ccccc12
Reply: 0.0126

Task item: Request body: readout Ki, system human serotonin 5-HT2A receptor (Homo sapiens), query O=C(NCCCN1CCN(c2ncccn2)CC1)c1n[nH]c2ccccc12 . Return the value.
Reply: 0.807

Task item: Entry O=C(NCCCN1CCN(c2ccccc2F)CC1)c1n[nH]c2ccccc12 , system human serotonin 5-HT2A receptor (Homo sapiens): what Ki was measured?
Reply: 0.117

Task item: Form: Entry = O=C(NCCCN1CCN(c2cccnc2)CC1)c1n[nH]c2ccccc12 | System = human serotonin 5-HT2A receptor (Homo sapiens) | Ki = ____
Reply: 2.65

Task item: What is its Ki for human serotonin 5-HT2A receptor (Homo sapiens)? Entry: O=C(NCCCN1CCN(c2cccc(F)c2)CC1)c1n[nH]c2ccccc12
Reply: 0.0944

---

Notes on Ki obtained with human histamine H1 receptor (Homo sapiens).
Sequence (P35367 whole entry): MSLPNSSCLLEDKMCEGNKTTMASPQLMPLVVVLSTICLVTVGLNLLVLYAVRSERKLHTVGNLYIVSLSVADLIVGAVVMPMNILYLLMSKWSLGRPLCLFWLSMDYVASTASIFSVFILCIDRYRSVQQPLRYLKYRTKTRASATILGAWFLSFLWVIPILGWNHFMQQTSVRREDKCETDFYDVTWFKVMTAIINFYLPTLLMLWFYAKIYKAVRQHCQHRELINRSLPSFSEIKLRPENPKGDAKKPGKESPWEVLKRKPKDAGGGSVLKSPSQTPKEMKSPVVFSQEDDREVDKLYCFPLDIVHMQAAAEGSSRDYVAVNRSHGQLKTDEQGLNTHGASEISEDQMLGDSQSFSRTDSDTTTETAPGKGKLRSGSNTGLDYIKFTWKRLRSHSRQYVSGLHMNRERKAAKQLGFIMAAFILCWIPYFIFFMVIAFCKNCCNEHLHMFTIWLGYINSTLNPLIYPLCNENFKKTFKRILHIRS
Write the answer as a number in nM, unit excluded.

Task item: Entry O=C(NCCCN1CCN(c2ccc(F)cc2)CC1)c1n[nH]c2ccccc12 : reported Ki = ?
Reply: 364

Task item: What value of measured Ki is listed for O=C(NCCCN1CCN(c2ccccc2)CC1)c1n[nH]c2ccccc12 ?
Reply: 474

Task item: Looking for the measured Ki of O=C(NCCCN1CCN(c2cccc(F)c2)CC1)c1n[nH]c2ccccc12 , can you help?
Reply: 1000

---

- target_under_test: human serotonin 5-HT2A receptor (Homo sapiens, UniProt P28223)
- Construct: expressed in transfected cells; host or cells: CHO-K1
- Sequence (P28223 whole entry): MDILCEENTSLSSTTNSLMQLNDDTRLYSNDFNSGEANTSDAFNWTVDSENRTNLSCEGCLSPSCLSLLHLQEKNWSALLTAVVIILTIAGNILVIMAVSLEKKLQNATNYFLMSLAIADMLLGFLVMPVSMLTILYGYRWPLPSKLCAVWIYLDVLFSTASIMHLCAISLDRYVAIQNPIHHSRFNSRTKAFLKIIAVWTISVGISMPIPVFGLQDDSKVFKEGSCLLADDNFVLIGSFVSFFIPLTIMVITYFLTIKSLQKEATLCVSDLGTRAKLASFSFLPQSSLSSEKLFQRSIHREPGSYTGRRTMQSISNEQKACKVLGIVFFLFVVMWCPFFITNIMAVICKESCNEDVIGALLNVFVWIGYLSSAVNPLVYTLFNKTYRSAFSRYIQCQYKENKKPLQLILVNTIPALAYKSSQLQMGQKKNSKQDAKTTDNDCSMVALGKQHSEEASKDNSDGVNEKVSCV
- method_description: Competition radioligand binding, [3H]-Ketanserin, CHO-K1 membranes
- assay_context: ratio of pKi values
readout: pKi 5-HT2A/pKi D2

Task item: Identify the measured pKi 5-HT2A/pKi D2 of CSc1ccccc1N1CCN(CCCNC(=O)c2n[nH]c3ccccc23)CC1 [Compound 14] for human serotonin 5-HT2A receptor (Homo sapiens, UniProt P28223).
Reply: 0.82

Task item: Form field - read-out: pKi 5-HT2A/pKi D2; system: human serotonin 5-HT2A receptor (Homo sapiens, UniProt P28223); submitted item: CCOc1ccccc1N1CCN(CCCNC(=O)c2n[nH]c3ccccc23)CC1 [Compound 15]
Reply: 0.85

Task item: Lab note: need pKi 5-HT2A/pKi D2 for O=C(NCCCN1CCN(c2cccnc2)CC1)c1n[nH]c2ccccc12 [Compound 6] on human serotonin 5-HT2A receptor (Homo sapiens, UniProt P28223), anyone have it?
Reply: 0.93

Task item: Provide value of pKi 5-HT2A/pKi D2 for this record tested with human serotonin 5-HT2A receptor (Homo sapiens, UniProt P28223): O=C(NCCCN1CCN(c2ccc(F)cc2)CC1)c1n[nH]c2ccccc12 [Compound 11]
Reply: 1.24

Task item: For the record O=C(NCCCN1CCN(c2ccccc2F)CC1)c1n[nH]c2ccccc12 [Compound 9] , what value of pKi 5-HT2A/pKi D2 is listed for human serotonin 5-HT2A receptor (Homo sapiens, UniProt P28223)?
Reply: 0.94

Task item: Lab request: please report pKi 5-HT2A/pKi D2 under test system human serotonin 5-HT2A receptor (Homo sapiens, UniProt P28223) for O=C(NCCCN1CCN(c2ccccn2)CC1)c1n[nH]c2ccccc12 [Compound 5]
Reply: 1.06

Task item: Form field: pKi 5-HT2A/pKi D2 recorded for COc1ccccc1N1CCN(CCCNC(=O)c2n[nH]c3ccccc23)CC1 [Compound 2] with human serotonin 5-HT2A receptor (Homo sapiens, UniProt P28223) (enter value)
Reply: 0.84

Task item: Please provide the recorded pKi 5-HT2A/pKi D2 for O=C(NCCCN1CCN(c2ccccc2Cl)CC1)c1n[nH]c2ccccc12 [Compound 13] , tested on human serotonin 5-HT2A receptor (Homo sapiens, UniProt P28223).
Reply: 0.96

Task item: Recall the recorded pKi 5-HT2A/pKi D2 for O=C(NCCCN1CCN(c2ccccc2C(F)(F)F)CC1)c1n[nH]c2ccccc12 [Compound 12] with human serotonin 5-HT2A receptor (Homo sapiens, UniProt P28223) and state it.
Reply: 0.83

Task item: What reported pKi 5-HT2A/pKi D2 corresponds to O=C(NCCCN1CCN(c2cccc(F)c2)CC1)c1n[nH]c2ccccc12 [Compound 10] on human serotonin 5-HT2A receptor (Homo sapiens, UniProt P28223)?
Reply: 1.07

Task item: Any idea what pKi 5-HT2A/pKi D2 came out for O=C(NCCCN1CCN(c2ncccn2)CC1)c1n[nH]c2ccccc12 [Compound 8] on human serotonin 5-HT2A receptor (Homo sapiens, UniProt P28223)?
Reply: 0.96

Task item: Tell me reported pKi 5-HT2A/pKi D2 for COc1cccc(N2CCN(CCCNC(=O)c3n[nH]c4ccccc34)CC2)c1 [Compound 3] , tested with human serotonin 5-HT2A receptor (Homo sapiens, UniProt P28223).
Reply: 1.04

Task item: Could you share what pKi 5-HT2A/pKi D2 was measured for O=C(NCCCN1CCN(c2ccccc2)CC1)c1n[nH]c2ccccc12 [Compound 1] , tested on human serotonin 5-HT2A receptor (Homo sapiens, UniProt P28223)?
Reply: 1.04
